Test system: PPARg:RXRa 30nM:10nM, anti-RXR (NR concentration 30 nM, RXRa partner concentration 10 nM)
Assay: PBM binding z-score (relative to random genomic background probes); higher = stronger binding; sequences stand for … in GC…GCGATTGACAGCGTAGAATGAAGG
Decision: PBM binding z-score compared against 2; not below it gives condition met, below it gives condition not met.

Example cases with answers are listed next.
| SEQ | GROUP |
| --- | --- |
| ATCGGAAGGTCGTGAGGTGAGTATACAGAAAGGC | condition not met |
| TCTTGTAGATCAAAGATTAAGAAAGCCGAAGCCT | condition met |
| CCTATTAGTTGACCATAAGGGCTACCGAAGCTCG | condition not met |
| ACAGACAGGTGATTAAGGTAACTCAGGCTATCAT | condition not met |

Qu. API: above_or_equal(metric=PBM binding z-score, cutoff=2) for item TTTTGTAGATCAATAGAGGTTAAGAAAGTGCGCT
Ans. condition not met

----------
Test system: THRa homodimer (NR concentration 90 nM)
Experiment: PBM binding z-score (relative to random genomic background probes); higher = stronger binding; sequences stand for … in GC…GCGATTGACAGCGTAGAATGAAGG
Just so you know, the groups by PBM binding z-score go like this: range 1: < 0.3; range 2: ≥ 0.3 and < 2; range 3: ≥ 2

Example cases with answers are listed next.
| SEQ | GROUP |
| --- | --- |
| TAGCCTAGGTCATATCGGGCCAGTATACGCTATA | range 2 |
| ATCTCCAGGTAAAAGTTCAGTGAATCCCGAGGAT | range 2 |
| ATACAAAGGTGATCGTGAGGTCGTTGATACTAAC | range 3 |

Qu. Which category does the recorded PBM binding z-score put GGAACGAGGGCAACGTTGATAGCATCTGTCGACG in?
Ans. range 1

Qu. Which category does the recorded PBM binding z-score put TCTAGTAGATCAAGCAGGTTAAGAAAGCCTGAGT in?
Ans. range 1

Qu. Which category does the recorded PBM binding z-score put TGTGCTAGGTCAACGATGGTCAGCTAATCTGCTA in?
Ans. range 2

Qu. Which category does the recorded PBM binding z-score put ACTAGTTAGTCAGCTGAGGTCACACACAATTCGG in?
Ans. range 3

Qu. Which category does the recorded PBM binding z-score put CTCGAAAGGCCGGTTGAGGTGAGTATACGGATAA in?
Ans. range 2

Qu. Which category does the recorded PBM binding z-score put TCTTGTAGATCACGCAGGTTAAGAAAGCCTGAGT in?
Ans. range 1

Qu. Which category does the recorded PBM binding z-score put ACTAGCAGGCCAAGTTGGGGTCACTCAAACAAAG in?
Ans. range 3

Qu. Which category does the recorded PBM binding z-score put ATCTCTAGGTAAGACTCAGTTGAGTGAAGAACGC in?
Ans. range 2

----------
Test system: RXRa DBDmut IVT, anti-RXR (DBD mutation: RXRa K156A/R161A, NR concentration 90 nM)
Test: PBM binding z-score (relative to random genomic background probes); higher = stronger binding; sequences stand for … in GC…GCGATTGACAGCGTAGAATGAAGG
EXPERIMENTAL_ENDPOINT: PBM binding z-score
Kindly provide the number alone.

As a guide, the following entries are already answered.
| SEQ | EXPERIMENTAL_SYSTEM | PBM binding z-score |
| --- | --- | --- |
| CCTACTGGGCCACGAAAGGTCAATGATTCAGTGA | RXRa DBDmut IVT, anti-RXR (DBD mutation: RXRa K156A/R161A, NR concentration 90 nM) | 0.165 |
| ATATGTAGGTTAAGTGTCATTCAGGTTGGTTCGC | RXRa DBDmut IVT, anti-RXR (DBD mutation: RXRa K156A/R161A, NR concentration 90 nM) | 1.1 |
| CGTCAAAGTTCATCTAAGGTAACGTAAAGCACGC | RXRa DBDmut IVT, anti-RXR (DBD mutation: RXRa K156A/R161A, NR concentration 90 nM) | 5.14 |
| ACTATCAGTTGAGACGAGGGCAACCGATAGGTTG | RXRa DBDmut IVT, anti-RXR (DBD mutation: RXRa K156A/R161A, NR concentration 90 nM) | 0.39 |
| AGTCAAAGTTCAGGACGAGGTAACGTCAAGCACG | RXRa DBDmut IVT, anti-RXR (DBD mutation: RXRa K156A/R161A, NR concentration 90 nM) | 2.71 |

Qu. Recorded PBM binding z-score for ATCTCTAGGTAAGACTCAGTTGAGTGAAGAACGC , please?
Ans. 0.17

Qu. Recorded PBM binding z-score for TCGAGTAGGTTTGGGGCATTCAGAATGGCGTCGA , please?
Ans. 0.194

Qu. Recorded PBM binding z-score for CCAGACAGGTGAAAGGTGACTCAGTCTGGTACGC , please?
Ans. -0.229

----------
System: RARb homodimer (NR concentration 270 nM)
Assay: PBM binding z-score (relative to random genomic background probes); higher = stronger binding; sequences stand for … in GC…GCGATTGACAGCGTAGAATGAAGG
Decision: PBM binding z-score compared against 2; not below it gives met, below it gives not met.

Qu. API: above_or_equal(metric=PBM binding z-score, cutoff=2) for item TAGAGTAGGTTAGTCGGGGCATTCAGCCAACATA
Ans. not met

----------
System: RARa homodimer (NR concentration 270 nM)
Experiment: PBM binding z-score (relative to random genomic background probes); higher = stronger binding; sequences stand for … in GC…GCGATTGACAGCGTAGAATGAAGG
EXPERIMENTAL_ENDPOINT: PBM binding z-score
Kindly provide the number alone.

As a guide, the following entries are already answered.
| SEQ | EXPERIMENTAL_RESULT |
| --- | --- |
| AGTCAAAGTTCATGTAGGTAACGTAAGATATGCT | 0.859 |
| TTACCTAGGTGAAAGGTCGTTGATGCACGCCTTG | -0.203 |
| TAGCCTAGGTCATGCGGGCCGGTATAGTGTCGGC | -0.545 |

Qu. Recorded PBM binding z-score for AATACAGGGTCATCGTAGGCTAGAGTACGCACAG , please?
Ans. 1.03

Qu. Recorded PBM binding z-score for TGGATGAGGTTATAAGATCAGGGAACGTTGCAAA , please?
Ans. 0.465

Qu. Recorded PBM binding z-score for CCTAGCTGGCCAGGGTCACTCAAGCATTTCGCTT , please?
Ans. -0.133

----------
System: FXR:RXRa (NR concentration 270 nM, RXRa partner concentration 90 nM)
Experiment: PBM binding z-score (relative to random genomic background probes); higher = stronger binding; sequences stand for … in GC…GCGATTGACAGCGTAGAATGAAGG
Decision: PBM binding z-score compared against 1; not below it gives rule met, below it gives rule not met.

Example cases with answers are listed next.
| SEQ | GROUP |
| --- | --- |
| CCTACTGGGCCAAAGGTCATTGATTCCAATGCTC | rule met |
| CGAAATAGGTCAGAACAGGACAGTGAAGGATGAT | rule met |
| GATACACGGTCAGCTAGAGGCCAGAGTATGGAAA | rule not met |
| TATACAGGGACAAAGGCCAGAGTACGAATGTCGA | rule not met |
| ATACCAAGGTGATCGTTAGGTCGTTGATACTAAC | rule met |
| CGAACTAGCTCATCCAGGACAGTGAATACATTGA | rule not met |
| CCTACTGGGCCAAAGGTCATTGAATCCAATGCTC | rule met |
| TCATATTGGTAAATGCTAGGTGAAAGTCCGATCT | rule not met |
| CCGACTGGGTCAGAAAGGTTACCATACCATCCGG | rule met |
| ATCGAAAGGTCGAGGTGAGTGTAGAGAAAGGGAA | rule met |

Qu. API: above_or_equal(metric=PBM binding z-score, cutoff=1) for item CTCGAAAGGTCGTGCCCAGGTGAGTATACCAAAC
Ans. rule met

Qu. API: above_or_equal(metric=PBM binding z-score, cutoff=1) for item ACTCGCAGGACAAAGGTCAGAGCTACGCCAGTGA
Ans. rule met

Qu. API: above_or_equal(metric=PBM binding z-score, cutoff=1) for item CCTAGCAGGCCAGGCTCACTCAAGCATTTCGCTT
Ans. rule not met

----------
Tested on: RARa homodimer (NR concentration 270 nM)
Experiment: PBM binding z-score (relative to random genomic background probes); higher = stronger binding; sequences stand for … in GC…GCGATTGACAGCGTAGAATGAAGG
Catalogue of PBM binding z-score readings, one per entry.
Kindly provide the number alone.

Qu. Recorded PBM binding z-score for ATCGAAAGGTCGAAGATGAGTATACCCACCCGAA , please?
Ans. 0.939

Qu. Recorded PBM binding z-score for TAGCCTAGGTCAGATCGAGCCAGTATACGCTATA , please?
Ans. -0.528

Qu. Recorded PBM binding z-score for CGAACTAGGTCAGAACAGGACAGTAAAGGATGAT , please?
Ans. 0.18

Qu. Recorded PBM binding z-score for GCTTGTAGATCAAGGTTAAGGAAGACTAAGCTAA , please?
Ans. -0.272

Qu. Recorded PBM binding z-score for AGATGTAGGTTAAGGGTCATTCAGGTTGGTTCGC , please?
Ans. 2.4
